Task for the reader: assign each of the following sequences its reported apparent Kd.
tested on: MS2 coat protein; assay: apparent Kd, MS2 coat protein; higher = weaker binding; RNA-MaP array; FMN 200 µM where present; conditions: ligand present: flavin mononucleotide; designed as: OFF switch for flavin mononucleotide

Here is how some sequences turned out for apparent Kd.
MS2 coat protein / apparent Kd / `ACACUGUGAGGAUAUACAUGAGGAUCACCCAUGUUAAGGAAGUCGUGGUUAAUUUAAGGUAGAAGGCGCUUAUU` : value?
42.8 nM

Try this sequence next: `GCACUGGAUGUAGGAUAUCAGGACGAUAAGUCCUGAGAAGGACAUGAGGAUCACCCAUGUGAUUACACCAGUGCAAAUAAUAUA`
7.06 nM

What would you report for `GGAUAGGACAGAGGAUAUACGUGCUAGAGAUACUAGCAAAAUUUCCUCACAUGAGGAUCACCCAUGUAGAAGGCUGUCCUAACG` ?
497 nM

`CGCUAAUUAAUUAUAUUAAUUGUACAGGAUAUGUAACAUGAGGAUCACCCAUGUAUUGGGUUUAAACAGAAGGGUAUAUUAGCG` , same question.
112 nM

Same thing, different sequence: `UAUAUAUAGGCAGGAUAUACAUGUAUAUAUAAUUUUUUAUAUAUUAUUACAUGAGGAUCACCCAUGUAGAAGGGCCAUAUUAUA`
51 nM

Now the same for `GGUCAUCAAGUCAGGAUAUCGUCUGGUCAAUCAGGCGAGAAGGGACAUGAGGAUCACCCAUGUCGACUCAUCAG`
139 nM

Batch: apparent Kd for all items listed.
1. CUAUAUAAUACCUCAUGUACAUGAGGAUCACCCAUGUUAACUUAGGAUAUAUUUAUAUUAAUAGAGUAGAAGGAAGUACUAUUG
2. UAAAUACAUGAGGAUCACCCAUGUCAGGAUAUAUUACGCCCGCCAAGCGAGCGCGUCUAUAGAAGGGACGGUGA
3. AACAUGUGAGGAUAUUAGUUGUACGUCAAUAGACGUAUAAGUGAGAAGGCACAUGAGGAUCACCCAUGUUCCUG
4. AUAAAACGAGGAUAUGCUGGGCUUCUGUGAUGCAUAUGCUCACAUGAGGAUCACCCAUGUAGAAGGUGUAAAAU
5. UCAUUUCAGUAAGGAUAUUUAUUCAUGACGAUACAUGAGGAUCACCCAUGUAAAGAAGGUACUAAUACAAAUAAUGCAUUGUUC

21.2 nM
33.2 nM
464 nM
289 nM
10.1 nM

---

system: MS2 coat protein; experiment: apparent Kd, MS2 coat protein; higher = weaker binding; RNA-MaP array; FMN 200 µM where present; details: ligand present: flavin mononucleotide; designed as: ON switch for flavin mononucleotide
Record form. Attribute: apparent Kd. Fill in for each entry.
Give bare numbers, in µM.

Field request: apparent Kd | item: `GACAUACAUGAGGAUCACCCAUGUUCAAGCGGACAAGGAUAUGUGUGGAAACCAUACUAUACAGAAGGUGUCUGUC`
0.0171

Try this sequence too: `GGAGCUCCUGACAUGAGGAUCACCCAUGUUCACUUAUUAAAUCAGGAUAUCGUCGCGAAACGCGACGAGAAGGGAUAUGCUCCU`
0.00705

Also, `GGGUACAUCGGAGGAUAUCAUGUAAAUACAUGAGGAUCACCCAUGUCGAUGGAGACAUCGGAGAUUGAGAAGGCCGAGGUACCG` please.
0.00991

Answer for every listed entry: what is its apparent Kd? The entries follow.
1. UUGCAGUGCGGGUAGGAUAUGUAGGGUGGUACAUGAGGAUCACCCAUGUGUCCACCCUUCUUCCGGCAGAAGGGCCUGUCACUGC
2. GAAUAUUCGUUGUACAUGAGGAUCACCCAUGUGACUUGACAUGAGGAUAUGGAUUCUAAUUGGAUCCAGAAGGCAUGAAUAUUC

[0.0135, 0.0315]

Requested field: apparent Kd. Item: `UAGGUCGACGUAGGAUAUGUAGGAUAUUCCUACAUGAGGAUCACCCAUGUUGAAAUGGAAGAAGGACAGAAGGACGUUGACCUU`
0.0136

---

test system: MS2 coat protein; experiment: apparent Kd, MS2 coat protein; higher = weaker binding; RNA-MaP array; FMN 200 µM where present; conditions: ligand present: flavin mononucleotide; designed as: OFF switch for flavin mononucleotide
Task for the reader: assign each of the following sequences its reported apparent Kd.
Give bare numbers, in nM.

These recorded examples may help you get a feel for the data.
Would you mind telling me what apparent Kd value was observed for `UUUACAUACAUGAGGAUCACCCAUGUGUUCACCCAUGUAAAUCAGGAUAUAUAUAUAUAGAAUGUAUAGAAGGGAUAAUUUUUU` ?
99.7

And the next one, `CCAGAGGAGUAGGAUAUAGGCCGCCAUCGGCGCCUAGAAGGGCUCACAUGAGGAUCACCCAUGUGAUGUUAGUU` ?
20

Queued: `CAUUGCGGAGGAUAUAGGCCGUAAUACAUGAGGAUCACCCAUGUGCCGCUGUAUAAUUCCCUAGAAGGUUGCCAUC`
15.7

Record: `UAUAUAUAGUAAGGAUAUGUAUUUAUUUUAUUAACAGAAGGUACUGACAUGAGGAUCACCCAUGUUUUAGUGUGGGCAUGUAGA`
146

Quick one: `AACGAGCUAGGAUAUGCACGGAAAAGCGUGGUCACUUAUGGACAUGAGGAUCACCCAUGUAGAAGGAGCGACGC`
18.9

How about this sequence: `CCUGCGGACAAAGGAUAUUGCGGUGGCCGGCUCAGUAAAUCUAGCCAACAUGAGGAUCACCCAUGUAAGAAGGUUGCCGUUGGU`
35.1

Okay, and `UGAUAGGACAGAGGAUAUACGGAUAGGAUCUACUAUCCUCCUUUAAUAACAUGAGGAUCACCCAUGUAGAAGGCUGUCCUAUCU` ?
24.2

Can you check `CUGUUCCAUGUAGGAUAUGCAUAUUCUCAUUAUGCAGAAGGACAUGAGGAUCACCCAUGUAUGUUAUUAUCAUAUGUUACAUGU` next?
241

Hi there! I need apparent Kd for each item below, if you can.
1. ACAUGAGGAUCACCCAUGUUAUCCGGGACUUCAAUUGUUUCUAGAAGGCUGUCUGCUUGUUAGUCAGAGGAUAUAGAAUCAAAU
2. CAUUAAUUGAUUAUUGUAUUUAUACAGGAUAUGUAACAUGAGGAUCACCCAUGUAUACAUGGGAAACAGAAGGGUAUUUAUAGA
3. CCGCGCAUAGGAUAUUAAUCUCACGACAUGAGGAUCACCCAUGUAACUCUGUGUGCGAUCUAAGAAGGGUGGGCUU
4. UUUACUUACGAAGGAUAUGGUUACAUGAGGAUCACCCAUGUAUGUAUAUUGAUCUAGUAUUUUAACCAGAAGGUCGUGAUUAUU
5. CUACUCGUUGUGAGGAUAUCGUUUUCGUCACGGAUCGAGAAGGCACAUGAGGAUCACCCAUGUUUGAUGUGGAU
6. UAUAUGUCAGGAUAUCGAUUGGAAUGGAAUUUAGUUUUGGUCGAGAAGGGACAUGAGGAUCACCCAUGUUUUUC

1: 11; 2: 25.6; 3: 24; 4: 46.9; 5: 79.7; 6: 215

---

system: MS2 coat protein; assay: apparent Kd, MS2 coat protein; higher = weaker binding; RNA-MaP array; FMN 200 µM where present; conditions: ligand present: flavin mononucleotide; designed as: OFF switch for flavin mononucleotide
Each entry falls into one class according to its apparent Kd; the ranges are category 1 (below 20 nM), category 2 (20 nM to below 70 nM), category 3 (70 nM or more)

The examples below pair each entry with its known result.
Band of `UGAUAGGACAGAGGAUAUACGUGCUAGAGAUACUAGCAAAGUUUCUUGACAUGAGGAUCACCCAUGUAGAAGGCUGUCCUAUCU` ?
category 1

Please give the result for `AAAAAGUGAGGAUAUACGAAAAAAAAAAAAAAAAAAGGUGAACAUGAGGAUCACCCAUGUAGAAGGCACAAAAA` too.
category 3

What do you get for `GUCAGACGAGGAUAUAGAUUUAAGUACAUGAGGAUCACCCAUGUACAUAUGUAUUUAGAUUUAGAAGGCGUCUGAC` ?
category 2

Another sequence to check: `GUCCUACAUGAGGAUCACCCAUGUGAGGAUAUGGUUUCGCUGGCCGUAGCCAGUGGAACCAGAAGGCGCGUGAU`
category 3

Similarly, `UAUUCUUACGAAGGAUAUGGUUACAUGAGGAUCACCCAUGUAUGUAUAUUGAUCUAGUUUUUUAACCAGAAGGUCGUGAGUAUA` ?
category 2

Others:
Which apparent Kd category applies to `UAAUAAAACGAUCGGCGAUCCAUACAUGAGGAUCACCCAUGUAGAAGGCACUCUACAAAGUAGAGUGAGGAUAUACGAGAUCGA` here?
category 3

Follow-up item: `GGUUAUUGCAAGGAUAUGCUUUUUUUUGAUAUUGCAGAAGGUGCAACAUGAGGAUCACCCAUGUUGGAGGGAUU`
category 3

Another sequence to check: `GAUUCACAUGAGGAUCACCCAUGUGAGGAUAUAGUGCAAGAGGUGGAUGCCCACCUCCCUAGAAGGCACACGGG`
category 2
